target: UniProt B4URF0
Sequence (B4URF0 whole entry): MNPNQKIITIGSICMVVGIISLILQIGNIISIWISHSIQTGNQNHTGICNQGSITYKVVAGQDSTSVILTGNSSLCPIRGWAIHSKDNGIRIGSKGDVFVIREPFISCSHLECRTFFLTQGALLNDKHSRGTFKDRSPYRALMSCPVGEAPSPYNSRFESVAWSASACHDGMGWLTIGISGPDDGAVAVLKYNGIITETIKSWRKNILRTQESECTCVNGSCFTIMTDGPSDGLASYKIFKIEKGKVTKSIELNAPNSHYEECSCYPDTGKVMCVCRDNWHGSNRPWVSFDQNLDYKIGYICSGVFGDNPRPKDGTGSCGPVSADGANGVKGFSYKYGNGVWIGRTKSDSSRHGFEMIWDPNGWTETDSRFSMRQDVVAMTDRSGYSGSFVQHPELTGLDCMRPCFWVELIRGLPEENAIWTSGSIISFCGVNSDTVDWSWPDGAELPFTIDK
Record form. Attribute: log10 IC50. Fill in for each entry.
A value of 2 here means IC50 of 100 in µM, since values are log10.

Guide cases for log10 IC50, answers given:
COc1ccc(S(=O)(=O)NCC(O)/C=C/c2ccccc2)cc1 (stereo unspecified) = 0.81
Cc1ccc(C(=O)NCC(/C=C/c2ccccc2)OC(=O)c2ccc(C)cc2)cc1 (stereo unspecified) = 1.79
O=S(=O)(NCC(O)/C=C/c1ccccc1)c1ccc(F)cc1 (stereo unspecified) = 0.90

For each of the molecules below, note its log10 IC50.
1. O=S(=O)(NCC(O)/C=C/c1ccccc1)c1ccccc1 (stereo unspecified)
2. Cc1ccc(CN(Cc2ccc(C)cc2)CC(O)/C=C/c2ccccc2)cc1 (stereo unspecified)
3. NCC(O)/C=C/c1ccccc1 (stereo unspecified)

1. 0.88
2. 1.71
3. 2.33

Data credit: ChEMBL document CHEMBL4118164
